Molecular target: T1, recombinant biotinylated human CD137 protein (Fc-fusion protein, R&D Systems 838-4B) (human, UniProt Q07011 24-186, biotinylated (site not stated))
T1 construct: Bought Fc fusion; The ELISA used the same antigen as the panning; also called CD137-Fc; biotinylated CD137; not shown: Fc part of the bought fusion protein
Experiment: ELISA, bacterial lysate on plate-bound antigen, luminescence
The entries below are paired with their reported ELISA CD137-Fc (RLU).
parameter.measured: ELISA CD137-Fc (RLU)

binder | parameter.measured | units.text | meas.value
ISOP120BR5P1G11 (designed binder, not shown: small tags and cut ends, FN3 domain (Centyrin); tested as E. coli lysate) LPAPKNLVVSRVTEDSARLSWTKRHFYTFDSFLIQYQESEKVGEAIVLTVPGSERSYYLTGLKPGTENTVSIYGVHGNHPYTDAPANPLSAIFTT | ELISA CD137-Fc (RLU) | RLU | 485000
ISOP120AR5P1B5 (designed binder, not shown: small tags and cut ends, FN3 domain (Centyrin); tested as E. coli lysate) LPAPKNLVVSRVTEDYARLSWKYGEHIIWFDSFLIQYQESEKVGEAIVLTVPGSERSYDLTGLKPGTEYTVSIYGVKGQHDHDSNPLSAIFTT | ELISA CD137-Fc (RLU) | RLU | 501000
ISOP120AR5P1C3 (designed binder, not shown: small tags and cut ends, FN3 domain (Centyrin); tested as E. coli lysate) LPAPKNLVVSRVTEDSARLSWSPVDADFTFDSFLIQYQESEKVGEAIVLTVPGSERSYDLTGLKPGTEYTVSIYGVGRHYTVYDSNPLSAIFTT | ELISA CD137-Fc (RLU) | RLU | 927000
ISOP120AR5P1D2 (designed binder, not shown: small tags and cut ends, FN3 domain (Centyrin); tested as E. coli lysate) LPAPKNLVVSRVTEDSARLSWDFAYFKFDSFLIQYQESEKVGEAIVLTVPGSERSYDLTGLKPGTEYTVSIYGVGRFYTVYYSNPLSAIFTT | ELISA CD137-Fc (RLU) | RLU | 908000
ISOP120FR5P1A11 (designed binder, not shown: small tags and cut ends, FN3 domain (Centyrin); tested as E. coli lysate) LPAPKNLVVSRVTEDSARLSWTAPDAAFDSFTIYYFENENGGEAIVLTVPGSERSYDLTGLKPGTEYLVTIYGVKGGHWSRPLSAIFTT | ELISA CD137-Fc (RLU) | RLU | 920000
